biological target: SARS-CoV-2 Main Protease (SARS-CoV-2) (UniProt P0DTD1); conditions: 50.0 µM
Measured inhibition accompanies every entry in the list below.
endpoint: inhibition (%)

[[record]]
molecule = "Cc1ccn2cnnc2c1NC(=O)C1CCOc2ccccc21 (configuration not stated)"
endpoint = "inhibition"
recorded_result = -4.74

[[record]]
molecule = "CN1CCN(C(=O)CNc2c(S(N)(=O)=O)ccc3ccccc23)CC1"
endpoint = "inhibition"
recorded_result = 0.321

[[record]]
molecule = "C=CC(=O)N(c1ccc(N(C)C)c(C)c1)C(C(=O)NC(C)(C)C)c1cccnc1 (configuration not stated)"
endpoint = "inhibition"
recorded_result = 8.8

[[record]]
molecule = "Cc1cccc(NC(=O)Cn2cncc2C)n1"
endpoint = "inhibition"
recorded_result = -3.38

[[record]]
molecule = "CN(C(=O)Cc1noc2ccccc12)c1ccc(NC(=O)OC(C)(C)C)cc1"
endpoint = "inhibition"
recorded_result = -11.9

[[record]]
molecule = "CC(C(=O)O)c1ccc2c(c1)[nH]c1ccc(Cl)cc12 (configuration not stated)"
endpoint = "inhibition"
recorded_result = 3.97

[[record]]
molecule = "Cc1nnc(CC(=O)Nc2cccnc2)s1"
endpoint = "inhibition"
recorded_result = -0.0294

[[record]]
molecule = "N#CCCCOC(=O)c1cccc2c1NC(=O)C2=O"
endpoint = "inhibition"
recorded_result = -1.22

[[record]]
molecule = "CS(=O)(=O)Nc1cccc(C(=O)OCC(=O)Nc2cccc(N3CCCC3=O)c2)c1"
endpoint = "inhibition"
recorded_result = 3.7

[[record]]
molecule = "Cc1cccc(C2CN(C(=O)CCl)Cc3ccccc32)c1 (configuration not stated)"
endpoint = "inhibition"
recorded_result = 99.7

[[record]]
molecule = "O=C(Nc1ccccc1OC1CCN(Cc2ccccc2)CC1)C1CCN(C(=O)CCl)CC1"
endpoint = "inhibition"
recorded_result = 16.5

[[record]]
molecule = "C=CC(=O)N(c1ccc(SC)cc1)C(C(=O)Nc1ccc(Cl)cc1)c1cccnc1 (configuration not stated)"
endpoint = "inhibition"
recorded_result = 32.3

[[record]]
molecule = "CC(C)Cn1cc(NC(=O)NCCC2=CCCCC2)c2ccccc2c1=O"
endpoint = "inhibition"
recorded_result = 0.931

[[record]]
molecule = "C=CC(=O)NCC(=O)N(CCN1CCOCC1)Cc1ccccc1Cl"
endpoint = "inhibition"
recorded_result = -19.7

[[record]]
molecule = "O=C(Cc1ccc(F)cc1)Nc1cccc2cc[nH]c12"
endpoint = "inhibition"
recorded_result = -33.9

[[record]]
molecule = "CC(C)(C)NC(=O)C(c1cccnc1)N(C(=O)c1ccco1)c1ccc(C(C)(C)C)cc1 (configuration not stated)"
endpoint = "inhibition"
recorded_result = 86.6

[[record]]
molecule = "C=CC(=O)N(c1cc(C(C)(C)C)on1)C(C(=O)Nc1cccc(CC)c1)c1cccnc1 (configuration not stated)"
endpoint = "inhibition"
recorded_result = 43.1

[[record]]
molecule = "C=CC(=O)N(C(C(=O)NC(C)(C)C)c1cccnc1)C1CC12CC(C)(C)C2 (configuration not stated)"
endpoint = "inhibition"
recorded_result = 15.5

[[record]]
molecule = "CC(C)Cn1cc(NC(=O)N2CCCN(Cc3ccccc3F)C2)c2ccccc2c1=O"
endpoint = "inhibition"
recorded_result = -3.78

[[record]]
molecule = "c1ccc(-c2cc(Sc3nnc(-c4cccs4)o3)n3ncnc3n2)cc1"
endpoint = "inhibition"
recorded_result = 96.7

[[record]]
molecule = "C=CC(=O)N(c1ccc(C(C)(C)C)cc1)C(C(=O)N[C@H]1CC[C@@H](C(=O)OC)C1)c1cccnc1 (stereo in doubt)"
endpoint = "inhibition"
recorded_result = 22.2

[[record]]
molecule = "O=C(CCl)N1CCN(S(=O)(=O)c2c(F)cccc2F)CC1"
endpoint = "inhibition"
recorded_result = 104


---

Measured relative solubility at 100 uM accompanies every entry in the list below.
details: 100.0 µM
endpoint: relative solubility at 100 uM

[[record]]
molecule = "Cc1c(C(=O)NC(CC(=O)O)c2cccc(Cl)c2)cnc2ccccc12 (stereo not given)"
endpoint = "relative solubility at 100 uM"
recorded_result = 1

[[record]]
molecule = "CC(C)(C)NC(=O)C(c1cccnc1)N(C(=O)c1ccco1)c1ccc(C(C)(C)C)cc1 (stereo not given)"
endpoint = "relative solubility at 100 uM"
recorded_result = 0.99

[[record]]
molecule = "CC(C)NC1CCN(c2ccc(S(N)(=O)=O)cc2)CC1"
endpoint = "relative solubility at 100 uM"
recorded_result = 0.98

[[record]]
molecule = "O=C(CCl)N1CCN(Cc2cc(Cl)ccc2CNC(=O)N2CCOCC2)CC1"
endpoint = "relative solubility at 100 uM"
recorded_result = 0.94

[[record]]
molecule = "C[C@H](NC(=O)[C@@H](C)c1ccc(F)c(F)c1)c1cccc(F)c1 (stereo in doubt)"
endpoint = "relative solubility at 100 uM"
recorded_result = 0.79


---

biological target: SARS-CoV-2 Main Protease (SARS-CoV-2); conditions: 20.0 µM
endpoint: inhibition (%)

[[record]]
compound = "C=CC(=O)N(c1ccc(C(C)OC)cc1)C(C(=O)Nc1ccc(Cl)cc1)c1cccnc1 (stereo not given)"
recorded_result = 12.3

[[record]]
compound = "C=CC(=O)N(c1ccc2c(c1)C=CCCC2)C(C(=O)NC(C)(C)C)c1cccnc1 (stereo not given)"
recorded_result = 12.4

[[record]]
compound = "NS(=O)(=O)c1ccc(N2CCC(c3ccsc3)CC2)cc1"
recorded_result = 7.4

[[record]]
compound = "O=C(NCCc1ccc2c(c1)CCO2)NCc1cccc(N2C(=O)NC3(CCCC3)C2=O)c1"
recorded_result = -29

[[record]]
compound = "Cc1ccncc1NS(=O)(=O)Cc1cccc(Cl)c1"
recorded_result = 4.3

[[record]]
compound = "C=CC(=O)N(c1ccc(C(C)(C)C)cc1)C(C(=O)NCCCC(=O)OCC)c1cccnc1 (stereo not given)"
recorded_result = 6.16

[[record]]
compound = "N#Cc1ncccc1NC(=O)Cc1cccc(Cl)c1"
recorded_result = -10.2

[[record]]
compound = "C=CC(=O)N(c1cc(C(C)(C)C)on1)C(C(=O)NCCc1cccc(F)c1)c1cncc(C)c1 (stereo not given)"
recorded_result = 17.5

[[record]]
compound = "C=CC(=O)N(C(C(=O)NC(C)(C)C)c1cccnc1)C1CC12CC(C)(C)C2 (stereo not given)"
recorded_result = 13

[[record]]
compound = "COCCc1ccc(Cl)cc1CN1CCN(C(=O)CCl)CC1"
recorded_result = 96.1


---

target: SARS-CoV-2 Main Protease (SARS-CoV-2) (UniProt P0DTD1); settings: 50.0 µM
Measured inhibition accompanies every entry in the list below.
endpoint: inhibition (%)

[[record]]
compound = "CC1(C)CCCN1S(=O)(=O)c1ccc2c(c1)C(=O)C(=O)N2"
endpoint = "inhibition"
recorded_result = -10.7

[[record]]
compound = "CC(NC(=O)CCl)c1cc(F)cc(Cl)c1 (stereo not drawn)"
endpoint = "inhibition"
recorded_result = 74.5

[[record]]
compound = "O=c1oc(Nc2ccccc2)nc2ccccc12"
endpoint = "inhibition"
recorded_result = 90.4

[[record]]
compound = "N#CCN1CCN(Cc2cc(Cl)cc3ccccc23)CC1"
endpoint = "inhibition"
recorded_result = 5.55

[[record]]
compound = "O=C(NCc1cccc(C(=O)N2CCOCC2)c1)c1cnc2c(c1)c(=O)[nH]c(=O)n2Cc1ccccc1"
endpoint = "inhibition"
recorded_result = -3.76

[[record]]
compound = "Cc1ccn(CC(=O)NCc2nccn2CCc2ccccc2)c(=O)c1"
endpoint = "inhibition"
recorded_result = -2.52

[[record]]
compound = "CC(C)Cn1cc(NC(=O)NCc2ccco2)c2ccccc2c1=O"
endpoint = "inhibition"
recorded_result = 90.3

[[record]]
compound = "NCc1cn(CC(=O)N(Cc2ccsc2)c2ccc(N3CCOCC3)cc2)nn1"
endpoint = "inhibition"
recorded_result = -1.29

[[record]]
compound = "Cc1nnc(NC(=O)Cc2cccc(Cl)c2)n1C"
endpoint = "inhibition"
recorded_result = 0.874

[[record]]
compound = "CC(C)c1nc(CN(C)C(=O)N[C@H](C(=O)N[C@@H](Cc2ccccc2)C[C@H](O)[C@H](Cc2ccccc2)NC(=O)OCc2cncs2)C(C)C)cs1 (stereo in doubt)"
endpoint = "inhibition"
recorded_result = 6.72

[[record]]
compound = "C=CC(=O)N(c1ccc(C(C)(C)C)cc1)C(C(=O)NCCSC)c1cccnc1 (stereo not drawn)"
endpoint = "inhibition"
recorded_result = 68.9

[[record]]
compound = "N#Cc1ccccc1S(=O)(=O)N1CCN(C(=O)c2cc(=O)[nH]c3ccc(F)cc23)CC1"
endpoint = "inhibition"
recorded_result = 29.9

[[record]]
compound = "COc1ccc(N2C(=O)CCS2(=O)=O)cc1S(=O)(=O)Nc1cccc2cccnc12"
endpoint = "inhibition"
recorded_result = 37.4

[[record]]
compound = "Cc1ccncc1NC(=O)Cc1cccc(OC(F)(F)F)c1"
endpoint = "inhibition"
recorded_result = -22.5

[[record]]
compound = "Cc1ccncc1NC(=O)N(C)c1cccc(Cl)c1"
endpoint = "inhibition"
recorded_result = 33.8

[[record]]
compound = "Cc1ccc(S(=O)(=O)NC2CCN(C(=O)CCl)CC2)cc1"
endpoint = "inhibition"
recorded_result = 59.3

[[record]]
compound = "CC(=O)Nc1ccc(NCC(=O)Nc2cnccc2C)cc1"
endpoint = "inhibition"
recorded_result = -24.3

[[record]]
compound = "Cc1ccncc1NC(=O)Cn1ccc2ccc(Cl)cc21"
endpoint = "inhibition"
recorded_result = 27

[[record]]
compound = "NS(=O)(=O)c1ccc(N2CCC(CN3CCCCCC3)CC2)cc1"
endpoint = "inhibition"
recorded_result = -0.987

[[record]]
compound = "O=C1/C(=C/c2ccc(O)cc2)c2ccccc2C(=O)N1Cc1ccc2c(c1)OCO2"
endpoint = "inhibition"
recorded_result = -3.72

[[record]]
compound = "C#Cc1ncccc1NC(=O)Cc1cccc(Cl)c1"
endpoint = "inhibition"
recorded_result = 3.62

[[record]]
compound = "O=C(O)[C@@H](Cc1nc(=O)cc[nH]1)NC[C@@H]1C[C@@H]2C=C[C@H]1C2 (stereo in doubt)"
endpoint = "inhibition"
recorded_result = 26.4

[[record]]
compound = "COc1ccccc1OCC(C)NC(=O)c1cc(=O)[nH]c2ccc(F)cc12 (stereo not drawn)"
endpoint = "inhibition"
recorded_result = 59.3

[[record]]
compound = "C=CC(=O)N(c1ccc(SC)cc1)C(C(=O)Nc1ccc(OC)cc1)c1cccnc1 (stereo not drawn)"
endpoint = "inhibition"
recorded_result = 27

[[record]]
compound = "C=CC(=O)N(c1ccc(C(C)C)nc1)C(C(=O)Nc1c(C)cccc1CC)c1cccnc1 (stereo not drawn)"
endpoint = "inhibition"
recorded_result = 12.5

[[record]]
compound = "Nc1ncc(S(=O)(=O)NCc2cccc(Cl)c2)cn1"
endpoint = "inhibition"
recorded_result = -6.16

[[record]]
compound = "COc1ccc2[nH]cc(CCNS(C)(=O)=O)c2c1"
endpoint = "inhibition"
recorded_result = -4.39

[[record]]
compound = "C=CC(=O)N1CCC(N(Cc2ccccc2C#N)C2CCC(O)CC2)CC1 (stereo not drawn)"
endpoint = "inhibition"
recorded_result = -8.67

[[record]]
compound = "COC1CCN(c2ccc(S(N)(=O)=O)cc2)CC1"
endpoint = "inhibition"
recorded_result = 6.82

[[record]]
compound = "O=C(CCl)N1CCN(C(c2ccccc2)C2CCCCC2)CC1 (stereo not drawn)"
endpoint = "inhibition"
recorded_result = 98.1

[[record]]
compound = "CC(=O)NCCc1c[nH]c2c(CN3CCN(C(=O)CCl)CC3)cccc12"
endpoint = "inhibition"
recorded_result = 85.7

[[record]]
compound = "COC(=O)[C@H](CO)NC(=O)[C@H](Cc1ccccc1)NC(=O)OCc1ccccc1 (stereo in doubt)"
endpoint = "inhibition"
recorded_result = 2.61

[[record]]
compound = "COC(=O)c1c(NCCCc2ccccc2)c2cc(F)ccc2[nH]c1=O"
endpoint = "inhibition"
recorded_result = 7.56

[[record]]
compound = "C=CC(=O)N(c1cc(C)cc(N)c1)C(C(=O)NC(C)(C)C)c1cccnc1 (stereo not drawn)"
endpoint = "inhibition"
recorded_result = -19.4

[[record]]
compound = "C=CC(=O)N(c1cc(C(C)(C)C)n[nH]1)C(C(=O)Nc1ccc(Cl)cc1)c1cccnc1 (stereo not drawn)"
endpoint = "inhibition"
recorded_result = 19.5

[[record]]
compound = "CN(C)c1ncccc1N(C)C(=O)C1CCOc2ccc(Cl)cc21 (stereo not drawn)"
endpoint = "inhibition"
recorded_result = -4.96

[[record]]
compound = "Cc1cnn(C)c1NC(=O)Cc1cccc(Cl)c1"
endpoint = "inhibition"
recorded_result = 5.06

[[record]]
compound = "O=S(=O)(NCCc1ccccc1)c1ccoc1"
endpoint = "inhibition"
recorded_result = -24.5

[[record]]
compound = "C=CC(=O)N1CCN(Cc2c[nH]c3ccc(C#N)cc23)CC1"
endpoint = "inhibition"
recorded_result = -27.1

[[record]]
compound = "O=C(CCl)N1CCN(Cc2cnc(Cc3ccccc3)s2)CC1"
endpoint = "inhibition"
recorded_result = 51.6

[[record]]
compound = "Cc1nc[nH]c1CN1CCN(Cc2cccc(Cl)c2)C1=O"
endpoint = "inhibition"
recorded_result = 2.39

[[record]]
compound = "C=CC(=O)N(c1ccc(C(C)(C)C)cc1)C(C(=O)NCCc1cccc(F)c1)c1cncc(C#N)c1 (stereo not drawn)"
endpoint = "inhibition"
recorded_result = 87.1

[[record]]
compound = "COc1cc(OC)nc(O[C@H](C(=O)O)C(OC)(c2ccccc2)c2ccccc2)n1 (stereo in doubt)"
endpoint = "inhibition"
recorded_result = 2.42

